The values you see were collected from ChEMBL document CHEMBL3885881.

- Organism: Rattus norvegicus
- procedure.summary: DrugMatrix - Regimen: Daily Repeat
- Assay type: toxicity, organism-based, Sprague-Dawley
- Parameters: regimen Daily Repeat, gender Male, age 6-8 weeks
- test.conditions: in vivo, po, 0 mg/kg, 72 h, tissue Plasma, route oral GAVAGE, dose level Control, time 3 day, vehicle 100 % WATER
readout.type: CREATININE

>>> meas_value("Cc1onc(-c2ccccc2Cl)c1C(=O)N[C@@H]1C(=O)N2[C@@H]1SC(C)(C)[C@@H]2C(=O)O [CLOXACILLIN]")
"0.2 mg/dL"
>>> meas_value("c1ccc([C@H]2CN3CCSC3=N2)cc1 [LEVAMISOLE]")
"0.18 mg/dL"
>>> meas_value("Nc1c2c(nc3ccccc13)CCCC2 [TACRINE]")
"0.92 mg/dL"
>>> meas_value("CN(C)CCCN1c2ccccc2Sc2ccc(Cl)cc21 [CHLORPROMAZINE]")
"0.18 mg/dL"
>>> meas_value("Clc1cccc(Cl)c1N=C1NCCN1 [CLONIDINE]")
"0.18 mg/dL"

* * *

Reported ALBUMIN is given for each of the following molecules.
- Species: Rattus norvegicus
- procedure.summary: DrugMatrix - Regimen: Daily Repeat
- Assay type: toxicity, organism-based, Sprague-Dawley
- Design: regimen Daily Repeat, gender Male, age 6-8 weeks
- test.conditions: in vivo, po, 0 mg/kg, 72 h, tissue Plasma, route oral GAVAGE, dose level Control, time 3 day, vehicle 100 % WATER
readout.type: ALBUMIN (G/DL)

>>> meas_value("CNNCc1ccc(C(=O)NC(C)C)cc1 [PROCARBAZINE]")
4.07
>>> meas_value("NCCCCCC(=O)O [AMINOCAPROIC ACID]")
4.18
>>> meas_value("COc1cc2nc(N3CCN(C(=O)C4COc5ccccc5O4)CC3)nc(N)c2cc1OC (stereo not given) [DOXAZOSIN]")
4.1
>>> meas_value("Nc1c2c(nc3ccccc13)CCCC2 [TACRINE]")
3.75
>>> meas_value("C=CCC1(C(C)CCC)C(=O)NC(=O)NC1=O (stereo not given) [SECOBARBITAL]")
4.07
>>> meas_value("c1ccc([C@H]2CN3CCSC3=N2)cc1 [LEVAMISOLE]")
4.02
>>> meas_value("CC(O)CO (stereo not given) [PROPYLENE GLYCOL]")
4.18
>>> meas_value("C[C@H](CS)C(=O)N1CCC[C@H]1C(=O)O [CAPTOPRIL]")
3.95
>>> meas_value("C[C@](N)(Cc1ccc(O)c(O)c1)C(=O)O [METHYLDOPA]")
4.17
>>> meas_value("C[C@H]1c2cccc(O)c2C(=O)C2=C(O)[C@]3(O)C(=O)C(C(N)=O)=C(O)[C@@H](N(C)C)[C@@H]3[C@@H](O)[C@@H]21.O [DOXYCYCLINE]")
4.1

* * *

- Species on record: Rattus norvegicus
- procedure.summary: DrugMatrix - Regimen: Daily Repeat
- Format: toxicity, organism-based, Sprague-Dawley
- Design: regimen Daily Repeat, gender Male, age 6-8 weeks
- test.conditions: in vivo, po, 0 mg/kg, 120 h, tissue Plasma, route oral GAVAGE, dose level Control, time 5 day, […]
The entries below come with measured CHLORIDE values attached.
readout.type: CHLORIDE (MEQ/L)

>>> meas_value("CCC(C)n1ncn(-c2ccc(N3CCN(c4ccc(OCC5COC(Cn6cncn6)(c6ccc(Cl)cc6Cl)O5)cc4)CC3)cc2)c1=O (centres undefined)")
99.5
>>> meas_value("O=c1oc2ccccc2c(O)c1Cc1c(O)c2ccccc2oc1=O")
100.33
>>> meas_value("CCOC(=O)C1=C(COCCN)NC(C)=C(C(=O)OC)C1c1ccccc1Cl (centres undefined)")
89.17
>>> meas_value("OC(Cn1cncn1)(Cn1cncn1)c1ccc(F)cc1F")
99.5
>>> meas_value("Cc1ccc(-c2cc(C(F)(F)F)nn2-c2ccc(S(N)(=O)=O)cc2)cc1")
99.5
>>> meas_value("C[C@H]1O[C@@H](O[C@H]2[C@@H](O)C[C@H](O[C@H]3[C@@H](O)C[C@H](O[C@H]4CC[C@@]5(C)[C@H](CC[C@@H]6[C@@H]5C[C@@H](O)[C@]5(C)[C@@H](C7=CC(=O)OC7)CC[C@]65O)C4)O[C@@H]3C)O[C@@H]2C)C[C@H](O)[C@@H]1O")
98
>>> meas_value("CN(C)c1nc(N(C)C)nc(N(C)C)n1")
89.17
>>> meas_value("Cc1oncc1C(=O)Nc1ccc(C(F)(F)F)cc1 [LEFLUNOMIDE]")
103
>>> meas_value("Cc1noc(NS(=O)(=O)c2ccc(N)cc2)c1C")
100.33
>>> meas_value("CC(C)C(=O)Nc1ccc([N+](=O)[O-])c(C(F)(F)F)c1 [FLUTAMIDE]")
98.67
>>> meas_value("CC(C)(Oc1ccc(Cl)cc1)C(=O)O")
104.33
>>> meas_value("O=C(O)CCCc1ccc(N(CCCl)CCCl)cc1")
99.5
>>> meas_value("O=NN(CCCl)C(=O)NC1CCCCC1")
89.17
>>> meas_value("C[C@@H]1CN(c2c(F)c(N)c3c(=O)c(C(=O)O)cn(C4CC4)c3c2F)C[C@H](C)N1")
89.17

* * *

- Species on record: Rattus norvegicus
- procedure.summary: DrugMatrix - Regimen: Daily Repeat
- Type: toxicity, organism-based, Sprague-Dawley
- Design: regimen Daily Repeat, gender Male, age 6-8 weeks
- test.conditions: in vivo, po, 0 mg/kg, 120 h, tissue Plasma, route oral GAVAGE, dose level Control, time 5 day, […]
readout.type: CHOLESTEROL (mg/dL)

>>> meas_value("CN(C)c1nc(N(C)C)nc(N(C)C)n1 [ALTRETAMINE]")
75.17
>>> meas_value("CC(C)(Oc1ccc(Cl)cc1)C(=O)O [CLOFIBRIC ACID]")
69.5
>>> meas_value("O=C(O)CCCc1ccc(N(CCCl)CCCl)cc1 [CHLORAMBUCIL]")
74.83
>>> meas_value("Cc1noc(NS(=O)(=O)c2ccc(N)cc2)c1C [SULFISOXAZOLE]")
54.5
>>> meas_value("C[C@@H]1CN(c2c(F)c(N)c3c(=O)c(C(=O)O)cn(C4CC4)c3c2F)C[C@H](C)N1 [SPARFLOXACIN]")
75.17
>>> meas_value("CCC(C)n1ncn(-c2ccc(N3CCN(c4ccc(OCC5COC(Cn6cncn6)(c6ccc(Cl)cc6Cl)O5)cc4)CC3)cc2)c1=O (centres undefined) [ITRACONAZOLE]")
74.83
>>> meas_value("O=c1oc2ccccc2c(O)c1Cc1c(O)c2ccccc2oc1=O [DICUMAROL]")
55.33
>>> meas_value("CC(C)C(=O)Nc1ccc([N+](=O)[O-])c(C(F)(F)F)c1 [FLUTAMIDE]")
56.5
>>> meas_value("O=NN(CCCl)C(=O)NC1CCCCC1 [LOMUSTINE]")
75.17

* * *

- Species on record: Rattus norvegicus
- procedure.summary: DrugMatrix - Regimen: Daily Repeat
- Assay type: toxicity, organism-based, Sprague-Dawley
- Set-up: regimen Daily Repeat, gender Male, age 6-8 weeks
- test.conditions: in vivo, po, 0 mg/kg, 120 h, tissue Plasma, route oral GAVAGE, dose level Control, time 5 day, […]
This section presents compounds with their documented PHOSPHORUS values.
readout.type: PHOSPHORUS (mg/dL)

>>> meas_value("O=NN(CCCl)C(=O)NC1CCCCC1 [LOMUSTINE]")
11.28
>>> meas_value("C[C@H]1O[C@@H](O[C@H]2[C@@H](O)C[C@H](O[C@H]3[C@@H](O)C[C@H](O[C@H]4CC[C@@]5(C)[C@H](CC[C@@H]6[C@@H]5C[C@@H](O)[C@]5(C)[C@@H](C7=CC(=O)OC7)CC[C@]65O)C4)O[C@@H]3C)O[C@@H]2C)C[C@H](O)[C@@H]1O [DIGOXIN]")
10.02
>>> meas_value("C[C@@H]1CN(c2c(F)c(N)c3c(=O)c(C(=O)O)cn(C4CC4)c3c2F)C[C@H](C)N1 [SPARFLOXACIN]")
11.28
>>> meas_value("Cc1noc(NS(=O)(=O)c2ccc(N)cc2)c1C [SULFISOXAZOLE]")
10.88
>>> meas_value("CCC(C)n1ncn(-c2ccc(N3CCN(c4ccc(OCC5COC(Cn6cncn6)(c6ccc(Cl)cc6Cl)O5)cc4)CC3)cc2)c1=O (configuration not stated) [ITRACONAZOLE]")
11.5
>>> meas_value("CN(C)c1nc(N(C)C)nc(N(C)C)n1 [ALTRETAMINE]")
11.28
>>> meas_value("CC(C)C(=O)Nc1ccc([N+](=O)[O-])c(C(F)(F)F)c1 [FLUTAMIDE]")
10.43

* * *

- Organism: Rattus norvegicus
- procedure.summary: DrugMatrix - Regimen: Daily Repeat
- Assay type: toxicity, organism-based, Sprague-Dawley
- Parameters: regimen Daily Repeat, gender Male, age 6-8 weeks
- test.conditions: in vivo, ip, 0 mg/kg, […], tissue Blood, route intraperitoneal, dose level Control, time 28 day, vehicle 100 % SALINE
readout.type: ABSOLUTE SEGMENTED NEUTROPHIL (cells/µL)

>>> meas_value("LEAD (II) ACETATE")
1560
